study.system: Follistatin (Homo sapiens) (UniProt P19883)
Sequence (P19883 whole entry, looked up): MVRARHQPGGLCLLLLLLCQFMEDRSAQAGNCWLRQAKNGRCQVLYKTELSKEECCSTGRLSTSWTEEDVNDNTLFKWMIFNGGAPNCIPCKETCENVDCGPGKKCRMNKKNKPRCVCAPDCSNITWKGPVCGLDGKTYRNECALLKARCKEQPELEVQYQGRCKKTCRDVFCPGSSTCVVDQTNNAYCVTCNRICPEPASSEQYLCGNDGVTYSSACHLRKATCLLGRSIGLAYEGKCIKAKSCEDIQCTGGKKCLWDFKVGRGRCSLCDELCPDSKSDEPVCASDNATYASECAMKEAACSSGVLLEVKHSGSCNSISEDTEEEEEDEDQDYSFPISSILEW
assay.info: follistatin binders on small-molecule microarrays, primary screen, biochemical, small-molecule microarray, 635/667 nm fluorescence (AID 1132)
study.conditions: FST binding, 635 nm fluorescence, higher = more signal
quantity: composite z-score
// print number alone

Recorded results for 2 molecules are shown here.
{"columns": ["compound.structure.string", "composite z-score"],
 "data": [
  ["CN(C)CCCC[C@@H]1NC(=O)[C@@H]2C[C@H](C(=O)NCCCCCCNC(=O)CS)[C@H](c3cccc(OCCO)c3)N2C1=O", 0.541],
  ["CC(C)C[C@@H]1NC(=O)[C@@H]2C[C@H](C(=O)O)[C@H](c3ccc(O)cc3)N2C1=O", 1.37]
]}

Query Cc1ccc(S[C@]2(C(=O)NCCN3CCOCC3)CC(=O)N(C3CCCCC3)[C@@H]2c2ccc(CO)cc2I)cc1 yields composite z-score of 0.972

Note to self: composite z-score recorded for COC(=O)c1c(CC[C@@H](CO)NC(=O)N[C@@H](Cc2ccccc2)Cn2cc(-c3cncn3C)nn2)oc(C(C)=O)c1C(=O)OC was 1.01
